Molecular target: T1, P2A
T1 chain: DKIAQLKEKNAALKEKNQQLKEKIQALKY
Experiment: two-hybrid library CCNG1;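 also: natural log of median RNA to DNA barcode read ratio; higher means stronger binding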
propertyMeasured: interaction score

[[record]]
binder = "DKIAQLKEKNAALKEKNQQLKEKIQALKY [P2A]"
propertymeasured = "interaction score"
observedvalue = -1.07

[[record]]
binder = "DENQALEQEIAQLEQEIAALEQKNAQLKY [P11A]"
propertymeasured = "interaction score"
observedvalue = -0.397

[[record]]
binder = "DKNAQLKEENAALEEKIQQLKEKIQALKY [P10A]"
propertymeasured = "interaction score"
observedvalue = -0.904

[[record]]
binder = "DEIQALEEENAQLEQENAALEEEIAQLEY [P1A]"
propertymeasured = "interaction score"
observedvalue = 2.6

[[record]]
binder = "DKNAQLKEKIAALKEKIQQLKEENQALEY [P12A]"
propertymeasured = "interaction score"
observedvalue = -1.43

